Assay: NCI Yeast Anticancer Drug Screen. Data for the sgs1 mgt1 strain (AID 161)
Conditions: S. cerevisiae sgs1 mgt1 strain, at 50.0 µM (retest, dose inferred, filed as 5.0)
Experimental: Growth inhibition of yeast strains with defined genetic alterations is measured as a screen for potential anti-cancer activity. Selected strains with alterations in DNA damage repair or cell cycle control were exposed to compounds and growth inhibition was measured relative to vehicle treated controls. The strain used in this assay is sgs1 mgt1
The panel holds about 79,000 compounds, 15% with a hit somewhere; the sample as a whole holds those more often. Calls of active or inactive are those of the source. Cut-off read from the data, not from the text of the source: active = growth inhibition above about 70%; inactive = the rest.
Bench note: report the call from active, inactive

Field: example entries. Status: answers known.
Compound | Class Assignment
COC(=O)c1cc([N+](=O)[O-])cc([N+](=O)[O-])c1Cl | active
CCOC(=O)C1=C(C(=O)c2ccccc2)C(c2cccc([N+](=O)[O-])c2)C(C(=O)c2ccccc2)=C(C(=O)OCC)N1 | inactive
Cc1nc(Sc2nc3ccc([N+](=O)[O-])cc3s2)sc1C | active
CCSc1nc2ccccc2o1 | inactive
N#CC(I)CS(=O)(=O)c1ccccc1 (stereo not given) | active

Enquiry: Would you mind telling me which call this test gave Clc1ccc(Cc2nc3ccccc3s2)cc1 ?
Return: active

Enquiry: Which outcome was entered for the compound O=C(c1ccccc1)c1cc2ccccc2oc1=O in this test?
Return: inactive
